// provenance: paper PMC9838217

I'd be grateful if you could share measured binding signal for these entries.
- Target Of Assay: SALL4 ZFC4 R900W (HT-SELEX) (Mus musculus, UniProt Q8BX22 870-940, R900W)
- Sequence: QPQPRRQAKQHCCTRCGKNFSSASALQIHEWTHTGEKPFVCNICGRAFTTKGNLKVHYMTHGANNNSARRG
- Test: HT-SELEX; high values mean tight binding
- Recorded Conditions: protein: recombinant; vector His6-GST; dsDNA, one strand shown
Write down the value, and be sure its unit follows.

{"Sequence": "ATTAAA", "Target Of Assay": "SALL4 ZFC4 R900W (HT-SELEX) (Mus musculus, UniProt Q8BX22 870-940, R900W)", "binding signal": "2.54 fold-change vs cycle 0"}
{"Sequence": "AGCTGA", "Target Of Assay": "SALL4 ZFC4 R900W (HT-SELEX) (Mus musculus, UniProt Q8BX22 870-940, R900W)", "binding signal": "0.802 fold-change vs cycle 0"}
{"Sequence": "ACATTG", "Target Of Assay": "SALL4 ZFC4 R900W (HT-SELEX) (Mus musculus, UniProt Q8BX22 870-940, R900W)", "binding signal": "1.29 fold-change vs cycle 0"}
{"Sequence": "ACGTCC", "Target Of Assay": "SALL4 ZFC4 R900W (HT-SELEX) (Mus musculus, UniProt Q8BX22 870-940, R900W)", "binding signal": "0.454 fold-change vs cycle 0"}
{"Sequence": "AATTGC", "Target Of Assay": "SALL4 ZFC4 R900W (HT-SELEX) (Mus musculus, UniProt Q8BX22 870-940, R900W)", "binding signal": "0.962 fold-change vs cycle 0"}
{"Sequence": "GATGAA", "Target Of Assay": "SALL4 ZFC4 R900W (HT-SELEX) (Mus musculus, UniProt Q8BX22 870-940, R900W)", "binding signal": "1.54 fold-change vs cycle 0"}
{"Sequence": "GATCGA", "Target Of Assay": "SALL4 ZFC4 R900W (HT-SELEX) (Mus musculus, UniProt Q8BX22 870-940, R900W)", "binding signal": "0.763 fold-change vs cycle 0"}
{"Sequence": "AGGTAT", "Target Of Assay": "SALL4 ZFC4 R900W (HT-SELEX) (Mus musculus, UniProt Q8BX22 870-940, R900W)", "binding signal": "1.54 fold-change vs cycle 0"}
{"Sequence": "CCACAG", "Target Of Assay": "SALL4 ZFC4 R900W (HT-SELEX) (Mus musculus, UniProt Q8BX22 870-940, R900W)", "binding signal": "0.424 fold-change vs cycle 0"}
{"Sequence": "ATCGCC", "Target Of Assay": "SALL4 ZFC4 R900W (HT-SELEX) (Mus musculus, UniProt Q8BX22 870-940, R900W)", "binding signal": "0.24 fold-change vs cycle 0"}

For each listed entry, give its binding signal.
1. GGCAGA
2. ACGCCT
3. GCCCAC
4. AAAGTT
5. GCCGAC
6. AGACAG
7. AAGAGA
8. AGAAAG

OUT:
0.306 fold-change vs cycle 0
0.304 fold-change vs cycle 0
0.151 fold-change vs cycle 0
1.9 fold-change vs cycle 0
0.0865 fold-change vs cycle 0
0.914 fold-change vs cycle 0
1.67 fold-change vs cycle 0
1.52 fold-change vs cycle 0
